Tested on: Neuregulin-1 EGF-like domain
Test: binders of neuregulin-1 EGF-like domain, primary screen, biochemical, small-molecule microarray, 635 nm fluorescence (AID 1081);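 also: binding of the protein to compounds printed on small-molecule microarray slides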
Conditions: small-molecule microarray binding, higher = more signal
recorded.endpoint: composite z-score
Response field accepts a number only; no unit should be typed.

COC(=O)C(CC#Cc1ccc2c(c1)[C@]1(C(=O)N2)[C@H](c2ccccc2OCCO)N2[C@H](c3ccccc3)[C@H](c3ccccc3)OC(=O)[C@H]2[C@@H]1C(=O)N1CCN(c2ncccn2)CC1)C(=O)OC = 1.13
O=C(NC1CC1)[C@@H]1c2ccccc2C(=O)N(C2CCCCC2)[C@H]1c1ccc(CO)cc1 = 1.29

From here, focus on the item given below.
Query :: Under Neuregulin-1 EGF-like domain: composite z-score value of [N-]=[N+]=Nc1ccccc1C[C@@]1(C(=O)NCC(O)CO)N=C(c2ccc(OCCCO)cc2)O[C@@H]1c1ccccc1N=[N+]=[N-] (stereo partly drawn) ?
Result :: 0.848
